assay: Red blood cell binding, mouse whole blood; assay type: in vitro ADME; settings: 30 minutes at 37°C, 500 ng/ml
Labelling field: enter 1.0 if recorded Mean Red Blood Cell to Plasma Ratio is less than 4. Enter 0.0 if it equals or exceeds that cut-off.

Lookup: Mean Red Blood Cell to Plasma Ratio strictly < 4 for this molecule? Cl.Cl.N[C@H]1CC[C@H](Nc2nc(NC3CCN(S(=O)(=O)c4cccc(C(F)(F)F)c4)CC3)c3ncn(C4CCCC4)c3n2)CC1 [compound 112]
Found: 1.0

Lookup: Mean Red Blood Cell to Plasma Ratio strictly < 4 for this molecule? Cl.Cl.N[C@H]1CC[C@H](Nc2nc(NC3CCN(C(=O)Oc4ccc(F)cc4)CC3)c3ncn(C4CCCC4)c3n2)CC1 [compound 87]
Found: 1.0

Lookup: Mean Red Blood Cell to Plasma Ratio strictly < 4 for this molecule? COc1ccc(OC(=O)N2CCC(Nc3nc(N[C@H]4CC[C@H](N)CC4)nc4c3ncn4C3CCCC3)CC2)cc1.Cl.Cl [compound 84]
Found: 1.0

Lookup: Mean Red Blood Cell to Plasma Ratio strictly < 4 for this molecule? Cl.Cl.N[C@H]1CC[C@H](Nc2nc(NC3CCN(C(=O)Oc4ccc([N+](=O)[O-])cc4)CC3)c3ncn(C4CCCC4)c3n2)CC1 [compound 89]
Found: 0.0

Lookup: Mean Red Blood Cell to Plasma Ratio strictly < 4 for this molecule? Cl.Cl.N[C@H]1CC[C@H](Nc2nc(NC3CCN(C(=O)Nc4ccc(C(F)(F)F)cc4)CC3)c3ncn(C4CCCC4)c3n2)CC1 [compound 149]
Found: 1.0

Lookup: Mean Red Blood Cell to Plasma Ratio strictly < 4 for this molecule? CCOC(=O)c1ccc(NC(=O)N2CCC(Nc3nc(N[C@H]4CC[C@H](N)CC4)nc4c3ncn4C3CCCC3)CC2)cc1.Cl.Cl [compound 154]
Found: 0.0

Lookup: Mean Red Blood Cell to Plasma Ratio strictly < 4 for this molecule? Cl.Cl.N[C@H]1CC[C@H](Nc2nc(NC3CCN(S(=O)(=O)c4ccc(F)cc4)CC3)c3ncn(C4CCCC4)c3n2)CC1 [compound 106]
Found: 1.0

Numbers sourced from patent EP1377579B1.
